procedure_details: qHTS of pediatric cancer cell lines to identify multiple opportunities for drug repurposing: Primary screen for control Hh wild type fibroblast cells (AID 1347106); note: nearly all actives have a fitted effect of over 55% in size
experimental_context: Hh wild-type fibroblast viability, CellTiter-Glo luminescence, 48 h; series mostly up to 46 µM
Records with an inconclusive call do not appear. Active and inactive are the calls of the source. Calls come from the whole dose curve; as a rule, active = well fitted cell-killing curve with a large enough effect; inconclusive = small, poorly fitted or top-dose-only effect; inactive = flat fitted curve, though single readings scatter.
Outcomes: yes (1) for active, no (0) for inactive

1) Cn1cc(C=CC(=O)c2cccc(F)c2)cc1C=CC(=O)NO; no (0)
2) c1coc(CNc2ncnc3nc[nH]c23)c1; no (0)
3) Nc1nc(=O)n([C@H]2C[C@H](O)[C@@H](CO)O2)cc1F; no (0)
4) CCCCCCCCCCCC(CC1OC(=O)C1CCCCCC)OC(=O)C(CC(C)C)NC=O (stereo not given); no (0)
5) CCCCCCCCCCCCc1ccc(S(=O)(=O)Nc2nncs2)cc1; no (0)
6) C=CC(=O)Nc1cccc(Nc2nc(NC3CCC(N(C)C)CC3)nc3c2ncn3C(C)C)c1 (stereo not given); yes (1)
7) CC(C=CC=C(C)C=CC1=C(C)CCCC1(C)C)=CC=CC=C(C)C=CC=C(C)C=CC1=C(C)CCCC1(C)C; no (0)
8) COc1ccc2cc([S+]([O-])Cc3ncc(C)c(OC)c3C)nc2c1; no (0)
9) C=C[C@@H]1CN2CCC1C[C@H]2[C@H](O)c1ccnc2ccc(OC)cc12 (stereo not given in full); no (0)
10) COc1ccc(Nc2nccc(NCCO)n2)cc1; no (0)
11) O=C(O)[C@H](CC(=O)N1C[C@@H]2CCCC[C@H]2C1)Cc1ccccc1; no (0)
12) CC(=O)O[C@H]1C[C@@H]2CC[C@H]3[C@H]4C[C@H]([N+]5(C)CCCCC5)[C@@H](OC(C)=O)[C@@]4(C)CC[C@@H]3[C@@]2(C)C[C@H]1N1CCCCC1; no (0)
13) COC1=C(OC)C(=O)C(CC=C(C)CCC=C(C)CCC=C(C)CCC=C(C)CCC=C(C)CCC=C(C)CCC=C(C)CCC=C(C)CCC=C(C)CCC=C(C)C)=C(C)C1=O; no (0)
14) Cc1cnn(C)c1C(=O)Nc1cc(Nc2ccc3c(C=Cc4ccccn4)n[nH]c3c2)ccc1F; no (0)
15) C[C@H]1C[C@H]2[C@@H]3CCC4=CC(=O)C=C[C@]4(C)[C@@H]3C(=O)C[C@]2(C)[C@@]1(O)C(=O)CO; no (0)
16) CC1=C(C(=O)Nc2cc3cn[nH]c3cc2F)C(c2ccc(Cl)cc2F)N=C(c2ccnc(Cl)c2)N1 (stereo not given); no (0)
17) Cn1cc(-c2ccc3ncc(Cc4ccc5ncccc5c4)n3n2)cn1; no (0)
18) CC[C@H]1OC(=O)[C@H](C)[C@@H](O[C@H]2C[C@@](C)(OC)[C@@H](O)[C@H](C)O2)[C@H](C)[C@@H](O[C@@H]2O[C@H](C)C[C@H](N(C)C)[C@@H]2O)[C@](C)(OC)C[C@@H](C)C(=O)[C@H](C)[C@@H](O)[C@]1(C)O; no (0)
19) COC(=O)[C@@H]1[C@H]2C[C@@H]3c4[nH]c5ccccc5c4CCN3C[C@@H]2CC[C@@H]1O; no (0)
20) CC(C)(C)[N+]([O-])=Cc1ccc(S(=O)(=O)O)cc1S(=O)(=O)O; no (0)
21) COc1ccc(S(=O)(=O)Nc2cc(-c3c(O)ccc4ccccc34)c(O)c3ccccc23)cc1; no (0)
22) COc1cc2c(Nc3ccc(Cl)c(Cl)c3F)ncnc2cc1OCC1C[C@@H]2CN(C)C[C@H]2C1; yes (1)
23) COc1cc2c(cc1O)CCC1C2CC[C@@]2(C)C1CC[C@@H]2O (stereo not given in full); no (0)
24) C=C1C(=O)O[C@H]2[C@@H]1CCC(C)=CCC[C@@]1(C)O[C@@H]21; no (0)
25) COc1cccc2c1C(=O)c1c(O)c3c(c(O)c1C2=O)C[C@@](O)(C(=O)CO)C[C@@H]3O[C@H]1C[C@H](N)[C@H](OC2CCCCO2)[C@H](C)O1 (stereo not given in full); no (0)
26) C[N+](C)([O-])CCNc1ccc(NCC[N+](C)(C)[O-])c2c1C(=O)c1c(O)ccc(O)c1C2=O; no (0)
27) C[C@H](NC(=O)Cc1cc(F)cc(F)c1)C(=O)N[C@H](C(=O)OC(C)(C)C)c1ccccc1; no (0)
28) CC1(C)O[C@@H]2C[C@H]3[C@@H]4CCC5=CC(=O)C=C[C@]5(C)[C@@H]4[C@@H](O)C[C@]3(C)[C@]2(C(=O)CO)O1; no (0)
29) N#CC(=Cc1ccc(O)c(O)c1)C(=O)NCc1ccccc1; no (0)
30) N=c1ccn2c(n1)O[C@H]1[C@@H](O)[C@@H](CO)O[C@H]12; no (0)
31) CC(C=CC(=O)NO)=C[C@@H](C)C(=O)c1ccc(N(C)C)cc1; yes (1)
32) O=C(c1ccc(F)cc1)N1CCC[C@H](c2nc(-c3ccc(F)cc3)no2)C1; no (0)
33) C[C@]12C=CC(=O)N[C@@H]1CC[C@H]1[C@H]3CC[C@@H](C(=O)Nc4cc(C(F)(F)F)ccc4C(F)(F)F)[C@@]3(C)CC[C@@H]12; no (0)
34) O=C(O)CCCCC(CCSCc1ccccc1)SCc1ccccc1 (stereo not given); no (0)
35) NC(=O)c1cccc(-c2cccc(OC(=O)NC3CCCCC3)c2)c1; no (0)
